Test system: primary human blood monocytes (hPBMC)
Test: IFN-alpha induction in primary human blood monocytes (hPBMC)
Assay type: cell-based
Conditions: first word of the cell IFN-α/TNF-α Induction (Yes/No)
Method: siRNAs were tested for activation of the immune system in primary human blood monocytes (hPBMC). […] However, chemically modified versions of this sequence (AD-1a2, AD-1a3, AD-1a5, and AD-1a4) as well as AD-2a1 were negative for both IFN-alpha and TNF-alpha induction in these same assays (see Table 5, and FIGS. 13A and 13B). Thus chemical modifications are capable of dampening both IFN-alpha and TNF-alpha responses to siRNA molecules.
In the oligonucleotide strings, read from the 5' end, every base follows the letter of its sugar. An asterisk marks phosphorothioate; unmarked linkages are phosphodiester. Other units and linkages are bracketed, terminal groups are in braces. A string of capitals states the bases alone. d = 2'-deoxy (DNA); m = 2'-O-methyl; r = 2'-OH (RNA); {P} = phosphate; f = 2'-fluoro
QUANTITY_MEASURED: IFN-α Induction

1) AD-ctrl: control siRNA targeting luciferase; SEQ ID NO:1519/1520 (chain 1 mCmUmUrAmCrGmCmUrGrArGmUrAmCmUmUmCrGrAdT*dT; chain 2 rUrCrGrArArGmUrArCrUmCrArGrCrGmUrArArGdT*dT) [reference compound] :: No/No
2) AD-10792: 2′OMe modified dsRNA targeting PCSK9 at 1091-1109, SEQ ID NO:1305/1306 (chain 1 rGmCmCmUrGrGrArGmUmUmUrAmUmUmCrGrGrArAdT*dT; chain 2 rUrUrCrCrGrArAmUrArArArCrUrCmCrArGrGrCdT*dT) :: No/No
3) AD-1a3: modified dsRNA, AD-1a2 core sequence, Alt 2′ F, 2′ OMe both strands; SEQ ID NO:1509/1510 (chain 1 GCCUGGAGUUUAUUCGGAATT; chain 2 {P}-mUfUmCfCmGfAmAfUmAfAmAfCmUfCmCfAmGfGmCdT*dT; chain 1: sugars from the 5' end fmfmfmfmfmfmfmfmfmfdd, backbone not given here) :: No/No

* * *

# Mean percent remaining mRNA transcript at siRNA concentration/in cell type 3 nM/HepG2 annotations
System: PCSK9 mRNA
Assay: PCSK9 siRNA screening in HepG2 cells (lipofectamine 2000 transfection, PCSK9 mRNA by Quantigene, normalized to GAP-DH)
Format: cell-based, human
Conditions: 3 nM siRNA
Experimental: […] 24 hours after transfection HuH7 and HepG2 cells were lysed and PCSK9 mRNA levels were quantified with the Quantigene Explore Kit (Genosprectra, Dumbarton Circle Fremont, USA, cat. No. QG-000-02) according to the protocol. […] The activity of a given PCSK9 specific siRNA duplex was expressed as percent PCSK9 mRNA concentration in treated cells relative to PCSK9 mRNA concentration in cells treated with the control siRNA duplex. […]
In the oligonucleotide strings, read from the 5' end, every base follows the letter of its sugar. An asterisk marks phosphorothioate; unmarked linkages are phosphodiester. Other units and linkages are bracketed, terminal groups are in braces. A string of capitals states the bases alone. d = 2'-deoxy (DNA); m = 2'-O-methyl; r = 2'-OH (RNA)
Just the number in %, nothing appended.

Reference set (2 entries):
1. AD-9679: PCSK9 siRNA (sense mUmCmUrArGrAmCmCmUrGmUmUmUmUrGmCmUmUmUdT*dT; antisense rArArArGmCrArArArAmCrArGrGrUrCmUrArGrAdT*dT) :: 21
2. AD-9610: PCSK9 siRNA (sense rArGrGrUrGrUrArUrCrUrCrCrUrArGrArCrArCdT*dT; antisense rGrUrGrUrCrUrArGrGrArGrArUrArCrArCrCrUdT*dT) :: 34

Requested read-out Mean percent remaining mRNA transcript at siRNA concentration/in cell type 3 nM/HepG2, target or system PCSK9 mRNA, entry AD-9548: PCSK9 siRNA (sense rGrCrArGrUrCrArGrArGrCrGrCrArCrUrGrCrCdT*dT; antisense rGrGrCrArGrUrGrCrGrCrUrCrUrGrArCrUrGrCdT*dT)
60

// fetch PCSK9 mRNA Mean percent remaining mRNA transcript at siRNA concentration/in cell type 3 nM/HepG2 for AD-9762: PCSK9 siRNA (sense mCrAmUrAmCrArGrArGmUrGrAmCmCrAmCmCrGrGdT*dT; antisense rCrCrGrGrUrGrGrUmCrArCrUrCrUrGmUrArUrGdT*dT)
28

# get_value(readout= Mean percent remaining mRNA transcript at siRNA concentration/in cell type 3 nM/HepG2, system= PCSK9 mRNA) for AD-9721: PCSK9 siRNA (sense mCmUrGrArGrGrAmCmCrArGmCrGrGrGmUrAmCmUdT*dT; antisense rArGmUrArCrCrCrGrCrUrGrGrUrCrCrUmCrArGdT*dT)
70

* * *

System: PCSK9 mRNA
Assay: PCSK9 siRNA screening in HepG2 cells (lipofectamine 2000 transfection, PCSK9 mRNA by Quantigene, normalized to GAP-DH)
Format: cell-based, human
In the oligonucleotide strings, read from the 5' end, every base follows the letter of its sugar. An asterisk marks phosphorothioate; unmarked linkages are phosphodiester. Other units and linkages are bracketed, terminal groups are in braces. A string of capitals states the bases alone. d = 2'-deoxy (DNA); m = 2'-O-methyl; r = 2'-OH (RNA)
QUANTITY_MEASURED: IC50 (nM)
Only the number, expressed in nM, is required.

Examples with their reported IC50 follow.
1) AD-10796: modified dsRNA, SEQ ID NO:1309/1310 (chain 1 rGmCmCmUrGrGrArGmUmUmUrAmUmUmCrGrGrArAdT*dT; chain 2 rUrUrCrCrGrArArUrArArArCrUrCrCrArGrGrCdT*dT) :: 0.1
2) AD-9762: PCSK9 siRNA (sense mCrAmUrAmCrArGrArGmUrGrAmCmCrAmCmCrGrGdT*dT; antisense rCrCrGrGrUrGrGrUmCrArCrUrCrUrGmUrArUrGdT*dT) :: 0.4
3) AD-9636: PCSK9 siRNA (sense rCrArUrArCrArGrArGrUrGrArCrCrArCrCrGrGdT*dT; antisense rCrCrGrGrUrGrGrUrCrArCrUrCrUrGrUrArUrGdT*dT) :: 2.1

Recorded IC50 for AD-9315: PCSK9 siRNA (sense rGrCrGrGrCrArCrCrCrUrCrArUrArGrGrCrCrUdT*dT; antisense rArGrGrCrCrUrArUrGrArGrGrGrUrGrCrCrGrCdT*dT) , please?
0.98

Could you share which IC50 value was measured for AD-10792: 2′OMe modified dsRNA targeting PCSK9 at 1091-1109, SEQ ID NO:1305/1306 (chain 1 rGmCmCmUrGrGrArGmUmUmUrAmUmUmCrGrGrArAdT*dT; chain 2 rUrUrCrCrGrArAmUrArArArCrUrCmCrArGrGrCdT*dT) ?
0.1

* * *

System: PCSK9 mRNA
Assay: PCSK9 siRNA screening in HepG2 cells (lipofectamine 2000 transfection, PCSK9 mRNA by Quantigene, normalized to GAP-DH)
Assay type: cell-based, human
Conditions: 100 nM siRNA
In the oligonucleotide strings, read from the 5' end, every base follows the letter of its sugar. An asterisk marks phosphorothioate; unmarked linkages are phosphodiester. Other units and linkages are bracketed, terminal groups are in braces. A string of capitals states the bases alone. d = 2'-deoxy (DNA); r = 2'-OH (RNA)
With a cut-off of 60%, any Mean percent remaining mRNA transcript at siRNA concentration/in cell type 100 nM/HepG2 strictly below it is called Met; any Mean percent remaining mRNA transcript at siRNA concentration/in cell type 100 nM/HepG2 meeting it or above is called Not met.

Look over these answered cases.
1. AD-9557: PCSK9 siRNA (sense rCrCrArCrCrGrGrGrArArArUrCrGrArGrGrGrCdT*dT; antisense rGrCrCrCrUrCrGrArUrUrUrCrCrCrGrGrUrGrGdT*dT) :: Not met
2. AD-9619: PCSK9 siRNA (sense rUrCrArGrGrArGrCrCrGrGrGrArCrGrUrCrArGdT*dT; antisense rCrUrGrArCrGrUrCrCrCrGrGrCrUrCrCrUrGrAdT*dT) :: Met
3. AD-9539: PCSK9 siRNA (sense rGrGrUrGrGrArGrGrUrGrUrArUrCrUrCrCrUrAdT*dT; antisense rUrArGrGrArGrArUrArCrArCrCrUrCrCrArCrCdT*dT) :: Met
4. AD-9637: PCSK9 siRNA (sense rGrArGrGrGrCrArGrGrGrUrCrArUrGrGrUrCrAdT*dT; antisense rUrGrArCrCrArUrGrArCrCrCrUrGrCrCrCrUrCdT*dT) :: Met
5. AD-9535: PCSK9 siRNA (sense rGrArGrUrGrArCrCrArCrCrGrGrGrArArArUrCdT*dT; antisense rGrArUrUrUrCrCrCrGrGrUrGrGrUrCrArCrUrCdT*dT) :: Met
6. AD-9586: PCSK9 siRNA (sense rGrArCrArUrCrArUrUrGrGrUrGrCrCrUrCrCrAdT*dT; antisense rUrGrGrArGrGrCrArCrCrArArUrGrArUrGrUrCdT*dT) :: Not met

Is Mean percent remaining mRNA transcript at siRNA concentration/in cell type 100 nM/HepG2 strictly under 60% for the entry AD-9526: PCSK9 siRNA (sense rUrCrCrCrArGrCrCrArGrGrArUrUrCrCrGrCrGdT*dT; antisense rCrGrCrGrGrArArUrCrCrUrGrGrCrUrGrGrGrAdT*dT) ?
Not met

Problem: For the substance AD-9572: PCSK9 siRNA (sense rCrCrArGrGrUrGrCrUrGrCrCrUrGrCrUrArCrCdT*dT; antisense rGrGrUrArGrCrArGrGrCrArGrCrArCrCrUrGrGdT*dT) , is Mean percent remaining mRNA transcript at siRNA concentration/in cell type 100 nM/HepG2 under 60%?
Met

API: query returns whether the substance falls strictly under 60% in Mean percent remaining mRNA transcript at siRNA concentration/in cell type 100 nM/HepG2. Query: AD-9594: PCSK9 siRNA (sense rGrCrUrGrCrCrGrGrCrArArCrUrUrCrCrGrGrGdT*dT; antisense rCrCrCrGrGrArArGrUrUrGrCrCrGrGrCrArGrCdT*dT)
Not met

Answer whether the substance AD-9616: PCSK9 siRNA (sense rArGrCrArCrCrUrGrCrUrUrUrGrUrGrUrCrArCdT*dT; antisense rGrUrGrArCrArCrArArArGrCrArGrGrUrGrCrUdT*dT) has Mean percent remaining mRNA transcript at siRNA concentration/in cell type 100 nM/HepG2 strictly less than 60%
Not met
